The measurements presented in this section are drawn from patent US4831155A.

Experiment: acute toxicity (lethal dose) in mice
Format: in vivo
Conditions: mouse, in vivo, injection, determined within two hours, read-out: lethal dose 50 (LD50)
PROPERTY MEASURED: LD50 at 2 h
Provide the measurement as a number trailed by its unit.

Sample records with LD50 at 2 h:
Sample CCCCCCCNC(=O)Oc1ccc2c(c1)[C@]1(C)CCN(C)[C@@H]1N2C [heptyl derivative] ; LD50 at 2 h observed: 35 mg/kg

Measured LD50 at 2 h of CNC(=O)Oc1ccc2c(c1)[C@]1(C)CCN(C)[C@@H]1N2C [Eserine, reference compound] : 0.6 mg/kg

The compound identified as CCCCCCCCCNC(=O)Oc1ccc2c(c1)[C@]1(C)CCN(C)[C@@H]1N2C [n.nonyl derivative] registered its LD50 at 2 h at 50 mg/kg

response.value for CN(C)C(=O)Oc1ccc2c(c1)[C@]1(C)CCN(C)[C@@H]1N2C [dimethyl derivative] (field: LD50 at 2 h) = 9 mg/kg

***
CCN(CC)C(=O)Oc1ccc2c(c1)[C@]1(C)CCN(C)[C@@H]1N2C [diethyl derivative] has a reported LD50 at 2 h of 38 mg/kg

Record summary for CCCCNC(=O)Oc1ccc2c(c1)[C@]1(C)CCN(C)[C@@H]1N2C [n.butyl derivative] : reported LD50 at 2 h = 6 mg/kg
